# Lookup of reported log10 EC50 hC3 cleavage keyed by entry
target: plasma purified human complement protein C3 (human) (UniProt P01024); experiment: cell-based or functional assay
Sequence (P01024 23-667, chain 1 of 2): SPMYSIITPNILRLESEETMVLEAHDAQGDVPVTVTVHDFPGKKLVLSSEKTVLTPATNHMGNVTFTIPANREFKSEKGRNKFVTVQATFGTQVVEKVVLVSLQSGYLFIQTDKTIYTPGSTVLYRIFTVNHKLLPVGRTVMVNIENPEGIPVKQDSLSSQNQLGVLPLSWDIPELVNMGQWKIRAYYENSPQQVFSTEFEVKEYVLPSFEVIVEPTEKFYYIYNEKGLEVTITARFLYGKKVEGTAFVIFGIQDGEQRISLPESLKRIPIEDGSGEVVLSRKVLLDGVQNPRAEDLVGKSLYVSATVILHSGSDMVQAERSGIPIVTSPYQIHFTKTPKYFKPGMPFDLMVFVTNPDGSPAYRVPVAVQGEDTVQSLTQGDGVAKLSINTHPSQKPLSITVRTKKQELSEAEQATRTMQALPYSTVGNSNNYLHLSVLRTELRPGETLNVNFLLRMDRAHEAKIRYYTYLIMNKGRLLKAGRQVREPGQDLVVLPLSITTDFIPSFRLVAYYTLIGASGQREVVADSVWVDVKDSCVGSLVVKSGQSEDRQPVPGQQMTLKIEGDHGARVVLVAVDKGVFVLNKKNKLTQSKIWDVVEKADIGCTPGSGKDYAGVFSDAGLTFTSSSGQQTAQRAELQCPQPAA
Sequence (P01024 672-1663, chain 2 of 2): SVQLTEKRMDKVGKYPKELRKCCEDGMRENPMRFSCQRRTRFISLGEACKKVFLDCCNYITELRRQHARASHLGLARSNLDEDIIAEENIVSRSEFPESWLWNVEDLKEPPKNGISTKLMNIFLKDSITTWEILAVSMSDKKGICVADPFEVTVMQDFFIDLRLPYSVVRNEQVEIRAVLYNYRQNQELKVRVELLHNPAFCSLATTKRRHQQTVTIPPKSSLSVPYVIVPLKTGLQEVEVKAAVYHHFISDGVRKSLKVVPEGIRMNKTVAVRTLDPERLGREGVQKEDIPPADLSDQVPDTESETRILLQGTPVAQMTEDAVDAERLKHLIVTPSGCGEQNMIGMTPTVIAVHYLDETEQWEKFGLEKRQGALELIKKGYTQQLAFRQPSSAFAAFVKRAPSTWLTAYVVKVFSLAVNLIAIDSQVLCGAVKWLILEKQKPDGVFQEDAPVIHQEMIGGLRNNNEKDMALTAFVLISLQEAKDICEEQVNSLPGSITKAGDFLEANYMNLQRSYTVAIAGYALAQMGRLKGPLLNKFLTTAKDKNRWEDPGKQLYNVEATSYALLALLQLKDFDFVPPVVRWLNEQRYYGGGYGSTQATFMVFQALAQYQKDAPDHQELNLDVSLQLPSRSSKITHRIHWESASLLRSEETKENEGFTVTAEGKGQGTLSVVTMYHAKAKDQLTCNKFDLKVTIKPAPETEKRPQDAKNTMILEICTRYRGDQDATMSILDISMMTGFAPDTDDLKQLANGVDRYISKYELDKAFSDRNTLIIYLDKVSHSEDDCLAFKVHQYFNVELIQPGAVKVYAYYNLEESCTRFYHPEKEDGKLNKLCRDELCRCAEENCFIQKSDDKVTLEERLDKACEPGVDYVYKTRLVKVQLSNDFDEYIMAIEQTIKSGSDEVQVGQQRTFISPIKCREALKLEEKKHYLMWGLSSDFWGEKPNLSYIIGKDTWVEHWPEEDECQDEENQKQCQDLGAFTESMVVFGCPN
Quick note: numbers are log10 of EC50 hC3 cleavage, with nM as the unit.

Recorded results for 4 binders are shown here.
{"binder": "MTSP-1 protease domain I41G/F97S/C122S/G151N/Q175I/Q192T/D217T (enzyme) VVGGTDADEGEWPWQVSLHALGQGHGCGASLISPNWLVSAAHCYIDDRGFRYSDPTQWTAFLGLHDQSQRSAPGVQERRLKRIISHPFFNDSTFDYDIALLELEKPAEYSSMVRPISLPDASHVFPAGKAIWVTGWGHTQYGGTNALILQKGEIRVINQTTCENLLPQIITPRMMCVGFLSGGVDSCTGDSGGPLSSVEADGRIFQAGVVSWGTGCAQRNKPGVYTRLPLFRDWIKENTGV", "log10 EC50 hC3 cleavage": 2.93}
{"binder": "MTSP-1 protease domain Q38H/I41A/D60bV/F60eR/Y60gW/F97D/F99L/C122S/G151N/Q175L/Q192D (enzyme) VVGGTDADEGEWPWQVSLHALGHGHACGASLISPNWLVSAAHCYIDVRGRRWSDPTQWTAFLGLHDQSQRSAPGVQERRLKRIISHPFFNDDTLDYDIALLELEKPAEYSSMVRPISLPDASHVFPAGKAIWVTGWGHTQYGGTNALILQKGEIRVINQTTCENLLPQLITPRMMCVGFLSGGVDSCDGDSGGPLSSVEADGRIFQAGVVSWGDGCAQRNKPGVYTRLPLFRDWIKENTGV", "log10 EC50 hC3 cleavage": 0.85}
{"binder": "MTSP-1 protease domain F97T/F99L/C122S/G151N/Q175S/Q192T/D217A (enzyme) VVGGTDADEGEWPWQVSLHALGQGHICGASLISPNWLVSAAHCYIDDRGFRYSDPTQWTAFLGLHDQSQRSAPGVQERRLKRIISHPFFNDTTLDYDIALLELEKPAEYSSMVRPISLPDASHVFPAGKAIWVTGWGHTQYGGTNALILQKGEIRVINQTTCENLLPQSITPRMMCVGFLSGGVDSCTGDSGGPLSSVEADGRIFQAGVVSWGAGCAQRNKPGVYTRLPLFRDWIKENTGV", "log10 EC50 hC3 cleavage": 2.24}
{"binder": "MTSP-1 protease domain I41S/Y59F/ins97aV/C122S/Q192G (enzyme) VVGGTDADEGEWPWQVSLHALGQGHSCGASLISPNWLVSAAHCFIDDRGFRYSDPTQWTAFLGLHDQSQRSAPGVQERRLKRIISHPFFNDFVTFDYDIALLELEKPAEYSSMVRPISLPDASHVFPAGKAIWVTGWGHTQYGGTGALILQKGEIRVINQTTCENLLPQQITPRMMCVGFLSGGVDSCGGDSGGPLSSVEADGRIFQAGVVSWGDGCAQRNKPGVYTRLPLFRDWIKENTGV", "log10 EC50 hC3 cleavage": 1.41}

log10 EC50 hC3 cleavage recorded for this binder, MTSP-1 protease domain I41S/F97A/ins97aV/T98L/C122S/Q192A (enzyme) VVGGTDADEGEWPWQVSLHALGQGHSCGASLISPNWLVSAAHCYIDDRGFRYSDPTQWTAFLGLHDQSQRSAPGVQERRLKRIISHPFFNDAVLFDYDIALLELEKPAEYSSMVRPISLPDASHVFPAGKAIWVTGWGHTQYGGTGALILQKGEIRVINQTTCENLLPQQITPRMMCVGFLSGGVDSCAGDSGGPLSSVEADGRIFQAGVVSWGDGCAQRNKPGVYTRLPLFRDWIKENTGV , is 0.72
